# Tested on: Trichomonas vaginalis
# Assay Notes: In vitro activity against T. vaginalis (IC50 determination)
# Type: cell-based
# Measurement Setup: 48 hr, 37° C., aerobic, Modified Diamonds Medium, 1×10^4 trichomonads cm^-3, read-out: IC50 48 hr
IC50 by entry:
All answers are understood in µg/mL, so give the number only.

[[record]]
molecule = "CCCCOc1cc2c(cc1OCCCC)C(C=Cc1ccc(Cl)cc1)=NCC2 [Example 157]"
measured_result = 2.1

[[record]]
molecule = "CCCCOc1ccc2c(c1)CCN=C2C=Cc1ccc(C(C)(C)C)cc1 [Example 15]"
measured_result = 2.8

[[record]]
molecule = "CCCCOc1ccc2c(c1)CCN=C2C=Cc1ccccc1Cl [Example 12]"
measured_result = 2


I'd like to know its IC50. The molecule in question is O=[N+]([O-])c1ccc(/C=C/C2=NCCc3cc(OCc4ccccc4)ccc32)o1 [Example 115]
1

I'd like to know its IC50. The molecule in question is CCCCOc1cc2c(cc1OCC)CCN=C2C=Cc1ccc(Cl)cc1Cl [Example 161]
1.4

I'd like to know its IC50. The molecule in question is CC(C)(C)c1ccc(C=CC2=NCCc3cc(OCc4ccccc4)ccc32)cc1 [Example 60]
10.5

I'd like to know its IC50. The molecule in question is Brc1csc(/C=C/C2=NCCc3cc(OCc4ccccc4)ccc32)c1 [Example 108]
6.1

I'd like to know its IC50. The molecule in question is CCCCOc1ccc2c(c1)CCN=C2/C=C/c1c(F)c(F)c(F)c(F)c1F [Example 23]
2.3

---

log10(IC50) by entry:
# Test system: Trichomonas vaginalis
# Assay Notes: In vitro activity against T. vaginalis (IC50 determination)
# Assay type: cell-based
# Measurement Setup: 24 hr, 37° C., aerobic, Modified Diamonds Medium, 1×10^4 trichomonads cm^-3, read-out: IC50 24 hr
Please be aware that the numbers have been log10-transformed from IC50 in µg/mL.

[[record]]
query_smiles = "CC(C)(C)c1ccc(COc2ccc3c(c2)CCN=C3C=Cc2ccc(Cl)cc2Cl)cc1"
measured_result = 0.04


Identify the measured log10(IC50) of C(=Cc1ccccc1)C1=NCCc2cc(OCc3ccccc3)ccc21 for Trichomonas vaginalis.
0.51

Identify the measured log10(IC50) of CCCCOc1cc2c(cc1OCC)CCN=C2C=Cc1ccc(Cl)cc1Cl for Trichomonas vaginalis.
-0.15

Identify the measured log10(IC50) of CCCCOc1ccc2c(c1)CCN=C2C=Cc1ccc(C#N)cc1 for Trichomonas vaginalis.
0.18

Identify the measured log10(IC50) of N#Cc1ccc(C=CC2=NCCc3cc(OCc4ccccc4)ccc32)cc1 for Trichomonas vaginalis.
0.46

Identify the measured log10(IC50) of CCCCOc1cc2c(cc1OCC)C(C=Cc1ccc(Cl)cc1Cl)=NCC2 for Trichomonas vaginalis.
-0.22

Identify the measured log10(IC50) of Clc1ccc(COc2ccc3c(c2)CCN=C3C=Cc2ccc(Cl)cc2Cl)cc1 for Trichomonas vaginalis.
0.04

---

IC50 by entry:
# System: Trichomonas vaginalis
# Assay Notes: In vitro activity against T. vaginalis (IC50 determination)
# Assay type: cell-based
# Measurement Setup: 24 hr, 37° C., aerobic, Modified Diamonds Medium, 1×10^4 trichomonads cm^-3, read-out: IC50 24 hr
All answers are understood in µg/mL, so give the number only.

Guide cases for IC50, answers given:
[[record]]
molecule = "CC(C)(C)c1ccc(Oc2ccc3c(c2)CCN=C3C=Cc2ccccc2)cc1"
reported_endpoint = "IC50"
measured_result = 0.4

[[record]]
molecule = "CC(C)COc1ccc2c(c1)CCN=C2C=Cc1ccccc1Cl"
reported_endpoint = "IC50"
measured_result = 1.1

[[record]]
molecule = "CCCOc1cc2c(cc1OCCC)C(C=Cc1ccc(Cl)cc1Cl)=NC(C)C2 (stereo not shown)"
reported_endpoint = "IC50"
measured_result = 0.8


In the following, a different molecule is considered.
I'd like to know its IC50. The molecule in question is Cl/C(=C\c1ccccc1)C1=NCCc2cc(OCc3ccccc3)ccc21
0.3
